Biological target: T1, secretory phospholipase A2 (sPLA2) (Homo sapiens, UniProt P14555 P14555:21-144)
T1 sequence: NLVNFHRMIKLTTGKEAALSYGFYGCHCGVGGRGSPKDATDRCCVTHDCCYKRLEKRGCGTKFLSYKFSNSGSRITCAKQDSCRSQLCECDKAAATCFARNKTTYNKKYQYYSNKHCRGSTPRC
Assay: filter; monophasic; TBSC, 37 C
Settings: tags: supplied by Eli Lilly; hairpin with asymmetric internal loop
pKd: −log10 of the molar value.
reported property: pKd

INSERT INTO results (binder, reported_property, test_value) VALUES
  ('NN41 (ssRNA, 2''-NH2 all C and U) RNA: GGGAAAAGCGAAUCAUACACAAGACCGGCCCGGUGUGCAGCCGGAGAUCCGAGACUUGCUGAACAAGGUGCCACGGCUCCGCCAGAGACCAACCGAGAA', 'pKd', 8.92),
  ('NN16 (ssRNA, 2''-NH2 all C and U) RNA: GGGAAAAGCGAAUCAUACACAAGACCGGCCGGGGAAACCCGAGAUCCGAGGUAACGCAUGGCGCCUCACCGAGUCGCUCCGCCAGAGACCAACCGAGAA', 'pKd', 9.05),
  ('NN2 (ssRNA, 2''-NH2 all C and U) RNA: GGGAAAAGCGAAUCAUACACAAGAGACCGGCCAGCCAAGGCGCUGAGAUCCGAGGUUUCAGAACCCAUCGGGUUGGCUCCGCCAGAGACCAACCGAGAA', 'pKd', 8.92);
